Test system: SH-SY5Y
Experiment: Cytotoxicity against human SH-SY5Y cells assessed as cell viability at 2.5 uM
Type: cell-based
metric_name: Activity

compound_string=CN1CCN(c2ccc(/C=C/c3cccc(/C=C/c4ccc(N5CCN(C)CC5)cc4)c3)cc2)CC1 metric_name=Activity observed_measurement=Non-toxic
compound_string=O=C1/C(=C/c2ccc(N3CCCCC3)cc2)CNC/C1=C\c1ccc(N2CCCCC2)cc1 metric_name=Activity observed_measurement=Non-toxic
compound_string=CN1CCN(c2ccc(/C=C3\CC/C(=C\c4ccc(N5CCN(C)CC5)cc4)C3=O)cc2)CC1 metric_name=Activity observed_measurement=Non-toxic

====

Experiment: Inhibition of self-mediated amyloid beta (1 to 42) aggregation at 50 uM after 48 hrs by thioflavin T fluorescence assay relative to control
Give measured inhibition for each item. Keep answers brief.
Report the value in % with no unit label.

For `CN1CCN(c2ccc(/C=C/c3cccc(/C=C/c4ccc(N5CCN(C)CC5)cc4)c3)cc2)CC1` , write its inhibition.
42.1

Given `CN1CCN(c2ccc(/C=C3\CC/C(=C\c4ccc(N5CCN(C)CC5)cc4)C3=O)cc2)CC1` , respond with its inhibition.
67.2

Return inhibition for the following compound: `CN1CCN(c2ccc(/C=C/C(=O)/C=C/c3ccc(N4CCN(C)CC4)cc3)cc2)CC1`
68.6

Identify measured inhibition corresponding to `CN1CCN(c2ccc(/C=C3\CCC/C(=C\c4ccc(N5CCN(C)CC5)cc4)C3=O)cc2)CC1`
73.1

====

Assay: Inhibition of self-mediated amyloid beta (1 to 42) aggregation at 50 uM after 48 hrs by thioflavin T fluorescence assay relative to control
Entry flag: criterion met if inhibition reaches 70%; criterion not met if it does not.

Decide: inhibition of `CN1CCN(c2ccc(/C=C/C(=O)c3ccc(C(=O)/C=C/c4ccc(N5CCN(C)CC5)cc4)cc3)cc2)CC1` >= 70%?
criterion not met

Determine whether this compound has inhibition no lower than 70%: `CN1CCN(c2ccc(/C=C/C(=O)CC(=O)/C=C/c3ccc(N4CCN(C)CC4)cc3)cc2)CC1`
criterion met

Assess whether reported inhibition for `CN1CCN(c2ccc(/C=C/C(=O)c3cccc(C(=O)/C=C/c4ccc(N5CCN(C)CC5)cc4)c3)cc2)CC1` sits at 70% or higher.
criterion not met

Check if inhibition >= 70% (inclusive). Item: `CN1CCN(c2ccc(/C=C3\CN(C)C/C(=C\c4ccc(N5CCN(C)CC5)cc4)C3=O)cc2)CC1`
criterion not met

// inclusive: inhibition at least 70%? input: `O=C1/C(=C/c2ccc(N3CCCCC3)cc2)CNC/C1=C\c1ccc(N2CCCCC2)cc1`
criterion not met

I'd appreciate it if you could say whether `CN1CCN(c2ccc(/C=C/c3cccc(/C=C/c4ccc(N5CCN(C)CC5)cc4)n3)cc2)CC1` has inhibition at least equal to 70%.
criterion not met

Given the entry `CN1CCN(c2ccc(/C=C3\CNC/C(=C\c4ccc(N5CCN(C)CC5)cc4)C3=O)cc2)CC1` , answer whether its inhibition meets or surpasses 70%.
criterion met
